molecular target: AXL (human); experiment: radiometric filter-binding kinase assay
propertyMeasured: IC50

IN: Look up and report measured IC50 (AXL (human)) for the following molecule: Nc1cc(C(F)(F)F)c(-c2cc(N3CCOCC3)nc(N3CCOCC3)n2)cn1
OUT: > 10 µM
